Test: Population pharmacokinetics of darunavir (Bayesian feedback analysis)
Settings: human, in vivo, Week 48, overall n = 298, with cobicistat; read-out: Population pharmacokinetic-derived AUC24h, mean (SD)
reported.endpoint: AUC(0-t) (µg·h/mL)
Provide the reading as a plain figure in µg·h/mL.

Annotate the compound `CC(C)CN(C[C@@H](O)[C@H](Cc1ccccc1)NC(=O)O[C@H]1CO[C@H]2OCC[C@H]21)S(=O)(=O)c1ccc(N)cc1` with its measured AUC(0-t).
102

* * *

Experiment: Population pharmacokinetics of darunavir (Bayesian feedback analysis)
Conditions: human, in vivo, Week 48, overall n = 298, with cobicistat; read-out: Population pharmacokinetic-derived trough plasma concentration (C0h), mean (SD)
reported.endpoint: concentration at 0 h (ng/mL)
Answer in ng/mL, number only, no unit symbol.

Give the reported value of concentration at 0 h for this record: `CC(C)CN(C[C@@H](O)[C@H](Cc1ccccc1)NC(=O)O[C@H]1CO[C@H]2OCC[C@H]21)S(=O)(=O)c1ccc(N)cc1`
2150
